B1: HDV Ribozyme (parent)
chain: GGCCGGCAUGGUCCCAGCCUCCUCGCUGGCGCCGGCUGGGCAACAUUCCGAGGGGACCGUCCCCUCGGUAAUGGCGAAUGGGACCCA

# Variants of: B1
# test summary: self-cleavage, relative activity (ratio to wild type); higher = more cleavage; co-transcriptional
Met means recorded self-cleavage is 0.3 or above; Not met means it is below 0.3.

Q) Hello, I need to know if GGCCGGCAUGGUCCCAGCCUCCUCGCUGGCGCCGGCUGGGCAACAUUCCGUGGGGACCGUCCCCUCGGUAAUGGCGAAUGGGACCCC [A51U A87C] has measured self-cleavage not below 0.3. Thanks!
A) Met

Q) Param item: GGCCGGCAUGGUACCAGCCUCCUCGCUGGCGCCGGCUGGGCAACAUUCCGAGGGGACCGUCCCCUCGGUAAUGGGGAAUGGGACCCA [C13A C75G]
A) Not met

Q) Param item: GGCCGGCAUGGUCCCAGCCUCCUCGCUGGCGCCGGCUGGGCAACAUUCCGAGGGGACCUACCCCUCGGUAAUGGCGAAUGGGACCCA [G59U U60A]
A) Met

Q) Param item: GGCCGGCAUGGUCGCAGCUUCCUCGCUGGCGCCGGCUGGGCAACAUUCCGAGGGGACCGUCCCCUCGGUAAUGGCGAAUGGGACCCA [C14G C19U]
A) Not met

Q) Param item: GGCCGGCAUGGACCCAGCCUCCUCGCUGGCGCCGGCUGGGCAACAUUCCGAGGGGACCGUCCCCUCGGUAAUGGCAAAUGGGACCCA [U12A G76A]
A) Met

Q) Param item: GGCCGGCAGGGUCCCAGCCUCCUCGCUGGCGCCGGCUGGGCAACAUUCCGAUGGGACCGUCCCCUCGGUAAUGGCGAAUGGGACCCA [U9G G52U]
A) Met

Q) Param item: GGCCGGCAUGGUCCCAGCCUCCUCGCUCGCGCCGGCUGGGCAACAUUCCGAGGGGACCGUCCCCUCGGUAAUGCCGAAUGGGACCCA [G28C G74C]
A) Not met

Q) Param item: GGCCGGAAUGGUCCCAGCCUCCUCGCUGGCGCCGGCUGGGCAACAUUCCGAGGGGACCGUCCCCUCGGUAAUGGCGAAUGGAACCCA [C7A G82A]
A) Not met

Q) Param item: GGCCGGCAUGGUCCCAGCCUCCUCGCUGGCGCCGGCUGCGCAACAUUCCGAGGGGACCGUCCCCUCGGUAAGGGCGAAUGGGACCCA [G39C U72G]
A) Not met

Q) Param item: GGCCGGCAUGGUCCCAGCCGCCUCGCUGGUGCCGGCUGGGCAACAUUCCGAGGGGACCGUCCCCUCGGUAAUGGCGAAUGGGACCCA [U20G C30U]
A) Not met

Q) Param item: GGCCGGCAUGGUCCCAGCCUCCUCGCUGGCGCCGGCUGGUCAUCAUUCCGAGGGGACCGUCCCCUCGGUAAUGGCGAAUGGGACCCA [G40U A43U]
A) Not met

Q) Param item: GGCCGGCCUGGUCCCAGCCUCCUCGCUGGCGCCGGCUGGGCAACACUCCGAGGGGACCGUCCCCUCGGUAAUGGCGAAUGGGACCCA [A8C U46C]
A) Met

Q) Param item: GGCCGGCAUGGUCCCAGCCUCCUCGCUGGCGCCGCCUGGGCAACAUUCUGAGGGGACCGUCCCCUCGGUAAUGGCGAAUGGGACCCA [G35C C49U]
A) Not met

Q) Param item: GGCCGGCAUGGUCCCAGCCUCCUCGCUGGCGCCGGCUGGGCAAAAUUCCGAGGGGACCGUCCCCUCGGUAACGGCGAAUGGGACCCA [C44A U72C]
A) Met

Q) Param item: GGCCGGCAUGGUCCCAGCCUCCUCUCUGCCGCCGGCUGGGCAACAUUCCGAGGGGACCGUCCCCUCGGUAAUGGCGAAUGGGACCCA [G25U G29C]
A) Not met

Q) Param item: GGCCGGCAUGGUCCCAGCCUCCUCGCUGGCCCCGGCUGGGCAACAUUCCGAGGGGACCGUCCCAUCGGUAAUGGCGAAUGGGACCCA [G31C C64A]
A) Not met

Q) Param item: GGCCGUCAUGGUCCCAGCCUCCUCGCUGGCGCCGGCUGGGCACCAUUCCGAGGGGACCGUCCCCUCGGUAAUGGCGAAUGGGACCCA [G6U A43C]
A) Not met

Q) Param item: GGCCGGAAUGGUCCCAGCCUCCUCGCUGGCGCCGGCUGGGCAACAUUCCGAGGGGGCCGUCCCCUCGGUAAUGGCGAAUGGGACCCA [C7A A56G]
A) Met

Q) Param item: GGCCGGCAUGGUCCCAGCCUCCCCGCUGGCGCCGGCUGGGCAACAUUCCGAGGGGACCGUCCCCUUGGUAAUGGCGAAUGGGACCCA [U23C C66U]
A) Met

Q) Param item: GGCCGGCAUGGUCCCAGCGUCCUCGCUGGCGCCGGCUGAGCAACAUUCCGAGGGGACCGUCCCCUCGGUAAUGGCGAAUGGGACCCA [C19G G39A]
A) Not met

Q) Param item: CGCCGGCAUGGUCCCAGCCUCCUCGCUGGCGCCGGCUGGGCAACAUUCCGAGUGGACCGUCCCCUCGGUAAUGGCGAAUGGGACCCA [G1C G53U]
A) Not met

Q) Param item: GGCCGGCAUGGUCCCGGCCUCCUCGCUGGCGCCGGCUGGGCAACAUUCCGAGGGGACCGUCCCCUCGGAAAUGGCGAAUGGGACCCA [A16G U69A]
A) Met

Q) Param item: GGCCGGCAUGGUCCCAGCCUCCUCGCUGGCGCCGGCUGGGCAACAUUCCGAGGGGACCGUUGCCUCGGUAAUGGCGAAUGGGACCCA [C61U C62G]
A) Met

Q) Param item: GGCCGCCAUGGUCCCAGCCUCCUCGCUGGCGCCGGCUGGGCAACAUUCCGAGGGGACCGUCCCCUCUGUAAUGGCGAAUGGGACCCA [G6C G67U]
A) Not met

Q) Param item: GGCCGGCAUGGUCCCAGCCUCCUCGCUGGCGCCGGCUGGGCAACAUUCCGAGGGGACCGUCCCCUUGGUAAUGGCGGAUGGGACCCA [C66U A77G]
A) Met

Q) Param item: GGCCGGCAUGGUCCCAGCCUCCUCGCUGGCGCAGGCUUGGCAACAUUCCGAGGGGACCGUCCCCUCGGUAAUGGCGAAUGGGACCCA [C33A G38U]
A) Not met

Q) Param item: GGCCGGCAUGGUCCCAGCUUCCUCGCUGGCGCCGGCUGGGCAACAUUCCGAGGGGACAGUCCCCUCGGUAAUGGCGAAUGGGACCCA [C19U C58A]
A) Not met
